Just for reference, ChEMBL document CHEMBL3988442 is where these values come from.

- Test System: Lysine--tRNA ligase (Plasmodium falciparum (isolate 3D7)) (UniProt Q8IDJ8)
- Sequence (Q8IDJ8 1-583): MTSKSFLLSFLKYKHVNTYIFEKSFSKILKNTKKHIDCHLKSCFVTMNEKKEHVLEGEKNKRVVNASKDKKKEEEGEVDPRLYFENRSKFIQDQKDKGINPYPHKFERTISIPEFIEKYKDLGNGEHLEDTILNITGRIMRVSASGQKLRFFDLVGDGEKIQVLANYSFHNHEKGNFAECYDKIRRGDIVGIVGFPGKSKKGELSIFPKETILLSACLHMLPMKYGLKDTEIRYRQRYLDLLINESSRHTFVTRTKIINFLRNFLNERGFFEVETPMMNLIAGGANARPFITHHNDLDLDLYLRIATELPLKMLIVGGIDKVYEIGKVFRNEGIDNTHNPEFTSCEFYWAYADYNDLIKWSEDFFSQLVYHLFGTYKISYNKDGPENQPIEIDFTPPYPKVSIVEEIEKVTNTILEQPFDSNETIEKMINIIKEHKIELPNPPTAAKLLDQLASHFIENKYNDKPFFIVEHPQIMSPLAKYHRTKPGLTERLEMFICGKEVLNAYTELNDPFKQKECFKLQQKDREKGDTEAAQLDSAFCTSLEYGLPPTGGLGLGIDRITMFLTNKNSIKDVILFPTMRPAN
- Method Notes: Pf-KRS-1 (Lysyl-RNA Synthetase-1, KRS-1, cytosolic KRS) from Plasmodium falciparum. Inhibitor assay, 384 well plate, luminescence read.
- Type: functional
- Design: scale not given: in the data most compounds retested in dose-response had high values
- Study Conditions: 30 µM
The campaign covered roughly 69,000 compounds. About 50 (0.07%) showed an effect of 50% or more. This is one part of a sample in which strong results are shown more often than they occur.
I'd be grateful if you could share measured Percent Effect for these entries.

Req: Annotate the compound N#Cc1cc2c(=O)n(CC(O)C(F)(F)F)ccc2[nH]c1=O (stereo unspecified) with its measured Percent Effect.
Resp: 27.3%

Req: Annotate the compound CCC1CCC(CNC(=O)c2c[nH]c(=O)c(Cl)c2)CC1 (stereo unspecified) with its measured Percent Effect.
Resp: 67.6%

Req: Annotate the compound `O=C(NC1CCCC1)[C@H]1CC[C@@H]2[C@@H](CCN2c2ncc(F)cn2)O1` with its measured Percent Effect.
Resp: -0.28%

Req: Annotate the compound `O=C(CC1CCCC1)N1C[C@@H]2CCN(c3cccnc3)C[C@@H]2C1` with its measured Percent Effect.
Resp: 1.75%

Req: Annotate the compound `CC(C)SCCn1ccc2[nH]c(=O)c(C#N)cc2c1=O` with its measured Percent Effect.
Resp: 48.5%

Req: Annotate the compound `O=C(c1ccc[nH]1)N1C[C@H](OCc2ccccn2)[C@H]2COC[C@H]21` with its measured Percent Effect.
Resp: -1.37%

Req: Annotate the compound O=C(c1cnc2[nH]c(=O)[nH]c(=O)c2c1)N1CCCC1C1CCCCC1 (stereo unspecified) with its measured Percent Effect.
Resp: 2.68%

Req: Annotate the compound O=C(c1ccc(=O)[nH]n1)N1CCCC1C1CCCC1 (stereo unspecified) with its measured Percent Effect.
Resp: 9.62%

Req: Annotate the compound CC(O)CCn1ccc2[nH]c(=O)c(C#N)cc2c1=O (stereo unspecified) with its measured Percent Effect.
Resp: 58.6%

Req: Annotate the compound O=C(c1c[nH]nn1)N1CCCC1C1CCCCC1 (stereo unspecified) with its measured Percent Effect.
Resp: 85.6%

Req: Annotate the compound `COCCN1CCC(CNC(=O)c2c[nH]c(=O)c(Cl)c2)CC1` with its measured Percent Effect.
Resp: 2.11%

====

- Test System: Lysine--tRNA ligase (Plasmodium falciparum (isolate 3D7))
- Method Notes: Pf-KRS-1 (Lysyl-RNA Synthetase-1, KRS-1, cytosolic KRS) from Plasmodium falciparum. Inhibitor assay, 384 well plate, luminescence read.
- Assay type: functional
- Set-up: scale not given: in the data most compounds retested in dose-response had high values
- Study Conditions: 30 µM
Screen size: about 69,000 compounds; about 50 (0.07%) showed an effect of 50% or more. What follows is part of a selection rich in strong results, with near analogues and random picks from the rest.
Response field label: string, one of True (Percent Effect strictly below 7%) or False.

Req: Please indicate whether the reported Percent Effect of `CC(C)CN1Cc2nc(N3CCCC3)ncc2C1=O` is strictly below 7%.
Resp: True

Req: Please indicate whether the reported Percent Effect of `COc1cccc(CN2C[C@@H]3COC[C@]3(CNC(=O)C3CC3)C2)c1` is strictly below 7%.
Resp: True

Req: Please indicate whether the reported Percent Effect of `CN1CCC(N2Cc3nc(N)ncc3C2=O)CC1` is strictly below 7%.
Resp: True

Req: Please indicate whether the reported Percent Effect of CC(NC(=O)C1=NN(C)C(=O)CC1)c1ccc(Cl)cc1 (configuration not stated) is strictly below 7%.
Resp: True

Req: Please indicate whether the reported Percent Effect of CNc1nc2c(s1)C(c1cccc(F)c1F)CC(=O)N2 (configuration not stated) is strictly below 7%.
Resp: False

Req: Please indicate whether the reported Percent Effect of CC1CCC(N2Cc3nc(N)ncc3C2=O)CC1 (configuration not stated) is strictly below 7%.
Resp: False

Req: Please indicate whether the reported Percent Effect of `CC(C)CN1Cc2nc(N)ncc2C1=O` is strictly below 7%.
Resp: False
